Target: MAO-B (Mus musculus, UniProt Q8BW75)
Construct: MAO activities in the mouse brain after; from tissue
Sequence (Q8BW75 1-520): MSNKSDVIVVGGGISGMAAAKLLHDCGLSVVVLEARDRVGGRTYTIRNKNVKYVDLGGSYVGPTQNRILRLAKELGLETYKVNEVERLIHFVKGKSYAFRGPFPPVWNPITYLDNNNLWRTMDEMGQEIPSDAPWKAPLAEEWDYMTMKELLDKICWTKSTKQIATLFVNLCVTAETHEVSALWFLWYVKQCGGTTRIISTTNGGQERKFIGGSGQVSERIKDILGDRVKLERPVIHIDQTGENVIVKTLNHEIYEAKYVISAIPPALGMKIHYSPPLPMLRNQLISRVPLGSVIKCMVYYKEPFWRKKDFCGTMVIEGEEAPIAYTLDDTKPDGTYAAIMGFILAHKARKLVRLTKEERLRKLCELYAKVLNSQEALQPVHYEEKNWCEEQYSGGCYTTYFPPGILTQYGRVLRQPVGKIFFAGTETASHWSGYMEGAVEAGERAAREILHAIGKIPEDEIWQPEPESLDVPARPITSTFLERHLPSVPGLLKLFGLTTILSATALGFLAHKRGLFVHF
Assay: in vivo
Type: in vivo
Conditions: mouse, in vivo, ip
Please go through the items and note down their MAO-B ID50 (mg/Kg) / IC50 (1 × 10^-6 M).

(Q) May I ask what MAO-B ID50 (mg/Kg) / IC50 (1 × 10^-6 M) has been recorded for "C#CCN(C)CCCCC.O=C(O)C(=O)O" ?
(A) 6.6

(Q) May I ask what MAO-B ID50 (mg/Kg) / IC50 (1 × 10^-6 M) has been recorded for C#CCN(C)C(C)CCCCC.Cl (stereo not shown) ?
(A) 2.5

(Q) May I ask what MAO-B ID50 (mg/Kg) / IC50 (1 × 10^-6 M) has been recorded for C#CCN(C)C(C)CCCCCCCCCC.Cl (stereo not shown) [Example 2-DdMP, N-(2-dodecyl)-N-methylpropargylamine-HCl] ?
(A) 100

(Q) May I ask what MAO-B ID50 (mg/Kg) / IC50 (1 × 10^-6 M) has been recorded for C#CCN(C)C(C)CCC.Cl.O=C(O)C(=O)O (stereo not shown) ?
(A) 2.5
